- Species on record: Rattus norvegicus
- METHOD_NOTES: DrugMatrix - Regimen: Daily Repeat
- Type: toxicity, organism-based, Sprague-Dawley
- Design: regimen Daily Repeat, gender Male, age 6-8 weeks
- MEASUREMENT_CONTEXT: in vivo, po, 0 mg/kg, 72 h, tissue Plasma, route oral GAVAGE, dose level Control, time 3 day, vehicle .5 % CMC

# COMPOUND, ALBUMIN (G/DL)
rows = [
    ("CC1(C)[C@H]2CC[C@]1(C)C(=O)C2 [(-)-CAMPHOR]", 4.27),
    ("CCOC(=O)OC(C)OC1=C(C(=O)Nc2ccccn2)N(C)S(=O)(=O)c2ccccc21 (stereo not given)", 4.37),
    ("CN1CCC[C@@H]1CCO[C@](C)(c1ccccc1)c1ccc(Cl)cc1", 4.15),
    ("C[C@]12CCC(=O)C=C1CC[C@@H]1[C@@H]2C(=O)C[C@@]2(C)[C@H]1CC[C@]2(O)C(=O)CO", 3.77),
    ("COC(=O)c1ccc(O)cc1", 4.17),
    ("O=c1[nH]cc(F)c(=O)[nH]1", 4.22),
    ("CN1C(C(=O)Nc2ccccn2)=C(O)c2ccccc2S1(=O)=O", 3.55),
    ("CC[C@H]1OC(=O)[C@H](C)[C@@H](O[C@H]2C[C@@](C)(OC)[C@@H](O)[C@H](C)O2)[C@H](C)[C@@H](O[C@@H]2O[C@H](C)C[C@H](N(C)C)[C@H]2O)[C@](C)(O)C[C@@H](C)/C(=N\\OCOCCOC)[C@H](C)[C@@H](O)[C@]1(C)O", 3.77),
    ("NCC(=O)O", 3.9),
    ("CC(/C=C1\\SC(=S)N(CC(=O)O)C1=O)=C\\c1ccccc1", 4.15),
]

The measured values listed here are drawn from ChEMBL document CHEMBL3885881.
